Please provide measured IC50 for the entries that follow.
Reply with just the number (in nM).

Challenge: # return IC50 of "CCC(C)(C)c1ccc(OCCCN2CCCCC2)cc1" (system: Amine oxidase [flavin-containing] B (Homo sapiens, UniProt P27338))
Sequence (P27338 whole entry): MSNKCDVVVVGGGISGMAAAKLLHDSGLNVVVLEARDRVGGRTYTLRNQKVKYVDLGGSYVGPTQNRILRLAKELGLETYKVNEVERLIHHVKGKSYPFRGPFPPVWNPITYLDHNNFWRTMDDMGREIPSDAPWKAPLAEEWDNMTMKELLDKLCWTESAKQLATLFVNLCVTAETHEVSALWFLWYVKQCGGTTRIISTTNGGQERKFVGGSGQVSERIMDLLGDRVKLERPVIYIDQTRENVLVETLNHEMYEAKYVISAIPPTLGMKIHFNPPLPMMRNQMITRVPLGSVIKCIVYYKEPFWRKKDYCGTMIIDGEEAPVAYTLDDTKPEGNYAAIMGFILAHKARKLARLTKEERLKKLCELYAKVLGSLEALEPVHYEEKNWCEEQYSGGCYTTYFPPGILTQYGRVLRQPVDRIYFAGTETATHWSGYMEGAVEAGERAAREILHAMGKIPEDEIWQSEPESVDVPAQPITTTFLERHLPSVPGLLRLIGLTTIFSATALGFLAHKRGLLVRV
Response given: 19

Challenge: Fill in IC50 for "CCC(C)(C)c1ccc(OCCCN2CCCCCC2)cc1" tested with Amine oxidase [flavin-containing] B (Homo sapiens, UniProt P27338).
Response given: 65

Challenge: Using Amine oxidase [flavin-containing] B (Homo sapiens, UniProt P27338) as the test system, report measured IC50 of CCC(C)(C)c1ccc(OCCCCN2CCCC(C)C2)cc1 (configuration not stated) .
Response given: 1230

Challenge: # lookup: Amine oxidase [flavin-containing] B (Homo sapiens, UniProt P27338) IC50, key = "CCC(C)(C)c1ccc(OCCCN2CCC(C)CC2)cc1"
Response given: 2070

Challenge: Enter measured IC50, system Amine oxidase [flavin-containing] B (Homo sapiens, UniProt P27338), for the compound shown: CCC(C)(C)c1ccc(OCCCN2CCCCC2C)cc1 (configuration not stated)
Response given: 20

Challenge: Quote Amine oxidase [flavin-containing] B (Homo sapiens, UniProt P27338) IC50 for entry "CCC(C)(C)c1ccc(OCCCCN2CCCCC2)cc1" .
Response given: 379

Challenge: Enter IC50 (test system Amine oxidase [flavin-containing] B (Homo sapiens, UniProt P27338)) for "CCC(C)(C)c1ccc(OCCCCCCCN2CCCCCC2)cc1"
Response given: 1490
